From: ChEMBL document CHEMBL1201862

biological target: Cytochrome P450 3A4 (Homo sapiens, UniProt P08684); conditions: Potency;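 also: confirmatory qHTS run detecting inhibitors and substrates of CYP3A4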
Sequence (P08684 whole entry): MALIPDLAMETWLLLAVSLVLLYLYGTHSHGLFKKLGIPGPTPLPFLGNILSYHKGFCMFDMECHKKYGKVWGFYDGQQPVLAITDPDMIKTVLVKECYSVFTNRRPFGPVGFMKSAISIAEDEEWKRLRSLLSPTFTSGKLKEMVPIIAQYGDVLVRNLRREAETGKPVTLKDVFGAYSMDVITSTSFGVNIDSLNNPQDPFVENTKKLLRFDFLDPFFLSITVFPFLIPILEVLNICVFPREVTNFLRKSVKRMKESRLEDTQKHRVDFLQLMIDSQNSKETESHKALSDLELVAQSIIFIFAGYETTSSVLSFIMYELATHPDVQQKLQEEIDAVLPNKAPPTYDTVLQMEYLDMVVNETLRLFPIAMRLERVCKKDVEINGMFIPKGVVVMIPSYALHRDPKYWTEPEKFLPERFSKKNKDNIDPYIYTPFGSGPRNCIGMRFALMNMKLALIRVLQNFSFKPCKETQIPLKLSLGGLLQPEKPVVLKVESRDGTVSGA
test.readout: AC50

Examples from the recorded data:
>>> df
                                   molecule  test_readout          value_measured
0  CCCn1c(-c2ccc(F)cc2)nc2c(N3CCN(C)CC3)nc(C)nc21          AC50  12.6 µM (inconclusive)
1                    c1ccc2c(c1)ccc1ncccc12          AC50  31.6 µM (inconclusive)
2  CC1=C(/C=C/C(C)=C/C=C/C(C)=C\C=O)C(C)(C)CCC1          AC50  31.6 µM (inconclusive)
3  Clc1ccc(C2[C@H]3CN(Cc4ccc(-c5ccccc5)cc4)[C@H](c4ccccc4)C34CC2(c2cccnc2)C4)cn1 (some centres not stated)          AC50  15.8 µM (inconclusive)
4  CCOC(=O)c1c(C)cc(O)c(C=O)c1O [ETHYL HEMATOMMATE]          AC50  39.8 µM (inconclusive)

State the recorded AC50 for every item in the following list.
1. C/C=C/c1ccc2c(c1)OCO2
2. CN1C[C@@H]2C(c3ccccc3)C3(c4ccc(C#N)cc4)CC2(C3)[C@H]1c1ccccc1 (some centres not stated)

Outgoing:
1. 25.1 µM (inconclusive)
2. 25.1 µM (inconclusive)
